# Test system: NCI-H196 complex spheroids with HUVEC/MSC, growth % T/C
# assay-protocol: Anticancer human tumor NCI-H196 cell line growth inhibition [Asc];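 further: spheroids exposed to compound for 7 days before measurement; 100% = DMSO vehicle control wells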
# experimental-setup: second compound 0.1 µM; first compound 0.00949 µM; active compounds read low
endpoint-label: viability, T/C (%)
Please reply with the bare figure in % and do not write the unit itself.

Memo: NC(=O)C(=Cn1cnc(-c2cc(C(F)(F)F)cc(C(F)(F)F)c2)n1)c1cncnc1 + CNC(C)C(=O)NC1CN(S(=O)(=O)c2cccc(S(=O)(=O)N3CCC4CCC(C(=O)NC(c5ccccc5)c5ccccc5)N4C(=O)C(NC(=O)C(C)NC)C3)c2)CCC2CCC(C(=O)NC(c3ccccc3)c3ccccc3)N2C1=O , reported viability, T/C: 3.89

Entry CCN1C(C(=O)NC23CCC(C(=O)O)(CC2)CC3)C(c2cccc(Cl)c2F)C2(C(=O)Nc3cc(Cl)ccc32)C12CCCCC2 (centres undefined) + CNC(C)C(=O)NC1CN(S(=O)(=O)c2cccc(S(=O)(=O)N3CCC4CCC(C(=O)NC(c5ccccc5)c5ccccc5)N4C(=O)C(NC(=O)C(C)NC)C3)c2)CCC2CCC(C(=O)NC(c3ccccc3)c3ccccc3)N2C1=O , viability, T/C reported as 3.71

Just so you know, measured viability, T/C for CCN1C(C(=O)NC23CCC(C(=O)O)(CC2)CC3)C(c2cccc(Cl)c2F)C2(C(=O)Nc3cc(Cl)ccc32)C12CCCCC2 (centres undefined) + Cc1c(S(C)(=O)=O)c(-c2cc(F)cc(N3CCN(c4ccc(NS(=O)(=O)c5ccc(NC(CCN6CCC(C(=O)OCCCP(=O)(O)O)CC6)CSc6ccccc6)c(S(=O)(=O)C(F)(F)F)c5)cc4)CC3)c2)c(-c2ccc(Cl)cc2)n1C(C)C came out at 89.3

Field viability, T/C (entry NC(=O)C(=Cn1cnc(-c2cc(C(F)(F)F)cc(C(F)(F)F)c2)n1)c1cncnc1 + Cc1c(S(C)(=O)=O)c(-c2cc(F)cc(N3CCN(c4ccc(NS(=O)(=O)c5ccc(NC(CCN6CCC(C(=O)OCCCP(=O)(O)O)CC6)CSc6ccccc6)c(S(=O)(=O)C(F)(F)F)c5)cc4)CC3)c2)c(-c2ccc(Cl)cc2)n1C(C)C ) reads 72.1

====

Assign viability, T/C to each entry below.
# Tested on: NCI-H196 complex spheroids with HUVEC/MSC, growth % T/C
# assay-protocol: Anticancer human tumor NCI-H196 cell line growth inhibition [Asc];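 further: spheroids exposed to compound for 7 days before measurement; 100% = DMSO vehicle control wells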
# experimental-setup: second compound 0.3 µM; first compound 0.00316 µM; active compounds read low
Please reply with the bare figure in % and do not write the unit itself.

Briefly, viability, T/C measured for NC1CCC(NC2CC2c2ccccc2)CC1 (stereo not drawn) + CCN1C(C(=O)NC23CCC(C(=O)O)(CC2)CC3)C(c2cccc(Cl)c2F)C2(C(=O)Nc3cc(Cl)ccc32)C12CCCCC2 : 108

Memo: CNC(C)C(=O)NC1CN(S(=O)(=O)c2cccc(S(=O)(=O)N3CCC4CCC(C(=O)NC(c5ccccc5)c5ccccc5)N4C(=O)C(NC(=O)C(C)NC)C3)c2)CCC2CCC(C(=O)NC(c3ccccc3)c3ccccc3)N2C1=O (stereo not drawn) + CCN1C(C(=O)NC23CCC(C(=O)O)(CC2)CC3)C(c2cccc(Cl)c2F)C2(C(=O)Nc3cc(Cl)ccc32)C12CCCCC2 , reported viability, T/C: 47.4

Short answer for COc1c(OCCCN2CCOCC2)ccc2c3n(c(=NC(=O)c4cnc(N)nc4)nc12)CCN3 + CCN1C(C(=O)NC23CCC(C(=O)O)(CC2)CC3)C(c2cccc(Cl)c2F)C2(C(=O)Nc3cc(Cl)ccc32)C12CCCCC2 : viability, T/C was 110
